From: paper PMC9139002

Form field: inhibition at 10 µM (one value per entry).
molecular target: hGSK-3β (Homo sapiens); construct: purchased Millipore; assay: Inhibition of human recombinant GSK-3β; format: biochemical; details: read-out: percentage of inhibition of hGSK-3β
Sequence (P49841 whole entry): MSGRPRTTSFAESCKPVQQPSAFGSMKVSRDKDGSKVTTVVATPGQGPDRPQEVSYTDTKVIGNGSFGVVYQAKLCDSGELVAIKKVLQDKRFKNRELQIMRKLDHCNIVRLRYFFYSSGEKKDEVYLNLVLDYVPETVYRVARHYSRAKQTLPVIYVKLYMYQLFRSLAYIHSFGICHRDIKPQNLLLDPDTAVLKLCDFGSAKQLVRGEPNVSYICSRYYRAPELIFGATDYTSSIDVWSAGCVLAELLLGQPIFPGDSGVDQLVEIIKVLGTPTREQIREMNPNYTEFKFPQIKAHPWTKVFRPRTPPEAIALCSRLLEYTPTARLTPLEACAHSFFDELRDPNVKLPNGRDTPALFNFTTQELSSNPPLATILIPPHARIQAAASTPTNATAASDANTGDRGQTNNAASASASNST
Respond with the bare value in %.

Sample records with inhibition at 10 µM:
{"COMPOUND": "COC(=O)NC1=C(Cl)C(=O)c2ccccc2C1=O [MBC-132]", "inhibition at 10 µM, %": 19}
{"COMPOUND": "CC(C)OC(=O)NC1=C(Cl)C(=O)c2ccccc2C1=O [Compound 2]", "inhibition at 10 µM, %": 25}
{"COMPOUND": "CCOC(=O)NC1=C(Cl)C(=O)c2ccccc2C1=O [Compound 1]", "inhibition at 10 µM, %": 30}

Consider the additional compound presented here.
[Q] Value lookup for inhibition at 10 µM; key = O=C(NC1=C(Cl)C(=O)c2ccccc2C1=O)OCc1ccccc1 [Compound 3]
[A] 19
